// provenance: ChEMBL document CHEMBL4842319

- test_name: Selectivity index, ratio of CC50 for human HepG2 cells to MIC for antimycobacterial activity against Mycobacterium tuberculosis H37Rv ATCC 27294
- Format: toxicity
- condition_summary: read-out: Selectivity Index
measure_name: selectivity ratio

{"molecular_string": "C#CCN(c1nc(-c2ccc(C#C)cc2)no1)C1CCCCC1", "selectivity ratio": "< 0.43"}
{"molecular_string": "C#CCN(c1nc(-c2cccc([N+](=O)[O-])c2)no1)C1CCCCC1", "selectivity ratio": "< 0.71"}
{"molecular_string": "C#CCN(c1nc(-c2ccc(C)cc2)no1)C1CCCCC1", "selectivity ratio": "< 1.43"}
{"molecular_string": "C#CCOc1ccc(-c2noc(N(CC#C)C3CCCCC3)n2)cc1", "selectivity ratio": "> 3.12"}

Next item in the queue.
Q: Give selectivity ratio for the following compound: "CC(=O)OC[C@H]1O[C@H](OC[C@@H](Cn2cc(CN(c3nc(-c4cccc(C)c4)no3)C3CCCCC3)nn2)OC(C)=O)C=C[C@@H]1OC(C)=O"
Ans: < 0.61

* * *

- test_name: Cytotoxicity against human HepG2 cells assessed as reduction in cell viability incubated for 48 hrs by MTT assay
- Type: cell-based
measure_name: CC50 at 48 h (µg/mL)
Just the number in µg/mL, nothing appended.

Q: Supply recorded CC50 at 48 h for "C#CCN(c1nc(-c2ccc(C)cc2)no1)C1CCCCC1" here.
Ans: 91.9

Q: Retrieve CC50 at 48 h measured for "C#CCOc1ccc(-c2noc(NC3CCCCC3)n2)cc1" and print it.
Ans: 119

Q: Look up and state reported CC50 at 48 h for "C#Cc1ccc(-c2noc(NC3CCCCC3)n2)cc1"
Ans: 54.2

Q: Tell me its CC50 at 48 h given "CC(=O)OC[C@H]1O[C@H](OC[C@@H](Cn2cc(CN(c3nc(-c4ccccc4)no3)C3CCCCC3)nn2)OC(C)=O)C=C[C@@H]1OC(C)=O" as the entry.
Ans: 19.9

Q: For the molecule "C#CCN(c1nc(-c2cccc(C)c2)no1)C1CCCCC1" , give its measured CC50 at 48 h value.
Ans: 44.4

Q: Output measured CC50 at 48 h for this item: "C#CCN(c1nc(-c2ccc(C(F)(F)F)cc2)no1)C1CCCCC1"
Ans: 61.9

Q: Determine its reported CC50 at 48 h: "CC(=O)OC[C@H]1O[C@H](OC[C@@H](Cn2cc(COc3ccc(-c4noc(N(Cc5cn(C[C@H](CO[C@@H]6C=C[C@H](OC(C)=O)[C@@H](COC(C)=O)O6)OC(C)=O)nn5)C5CCCCC5)n4)cc3)nn2)OC(C)=O)C=C[C@@H]1OC(C)=O"
Ans: 47

Q: Report CC50 at 48 h for "CC(=O)OC[C@H]1O[C@H](OC[C@H](Cn2cc(COc3ccc(-c4noc(NC5CCCCC5)n4)cc3)nn2)OC(C)=O)C=C[C@@H]1OC(C)=O"
Ans: 99.5

Q: Please list CC50 at 48 h recorded for the molecule "C#CCN(c1nc(-c2ccc(Br)cc2)no1)C1CCCCC1"
Ans: 102

Q: Indicate its recorded CC50 at 48 h; the molecule in question is "CC(=O)OC[C@H]1O[C@H](OC[C@@H](Cn2cc(CN(c3nc(-c4ccc(Cl)cc4)no3)C3CCCCC3)nn2)OC(C)=O)C=C[C@@H]1OC(C)=O"
Ans: 46.9

Q: For "CC(=O)OC[C@H]1O[C@H](OC[C@@H](Cn2cc(CN(c3nc(-c4ccc(C(F)(F)F)cc4)no3)C3CCCCC3)nn2)OC(C)=O)C=C[C@@H]1OC(C)=O" , write its CC50 at 48 h.
Ans: 81.4

Q: Consider the molecule "CC(=O)OC[C@H]1O[C@H](OC[C@@H](Cn2cc(CN(c3nc(-c4ccc(Br)cc4)no3)C3CCCCC3)nn2)OC(C)=O)C=C[C@@H]1OC(C)=O" and give its recorded CC50 at 48 h.
Ans: 47.6

Q: Report measured CC50 at 48 h; entry is "C#CCN(c1nc(-c2ccc(OC)cc2)no1)C1CCCCC1"
Ans: 72.5

Q: Return CC50 at 48 h (reported value) for this molecule: "CC(=O)OC[C@H]1O[C@H](OC[C@@H](Cn2cc(CN(c3nc(-c4ccc(-c5cn(C[C@H](CO[C@@H]6C=C[C@H](OC(C)=O)[C@@H](COC(C)=O)O6)OC(C)=O)nn5)cc4)no3)C3CCCCC3)nn2)OC(C)=O)C=C[C@@H]1OC(C)=O"
Ans: 11.8

Q: Please look at this molecule and report its CC50 at 48 h: "C#CCN(c1nc(-c2ccc([N+](=O)[O-])cc2)no1)C1CCCCC1"
Ans: 43.7

Q: Quick one: give measured CC50 at 48 h for "COc1ccc(-c2noc(N(Cc3cn(C[C@H](CO[C@@H]4C=C[C@H](OC(C)=O)[C@@H](COC(C)=O)O4)OC(C)=O)nn3)C3CCCCC3)n2)cc1"
Ans: 141

Q: Tell us which CC50 at 48 h value is on record for "C#CCN(c1nc(-c2ccc(Cl)cc2)no1)C1CCCCC1"
Ans: 41.3

Q: Give reported CC50 at 48 h value for "CC(=O)OC[C@H]1O[C@H](OC[C@H](Cn2cc(-c3ccc(-c4noc(NC5CCCCC5)n4)cc3)nn2)OC(C)=O)C=C[C@@H]1OC(C)=O"
Ans: 79.8

Q: Annotate the molecule "CC(=O)OC[C@H]1O[C@H](OC[C@H](Cn2cc(COc3ccc(-c4noc(C)n4)cc3)nn2)OC(C)=O)C=C[C@@H]1OC(C)=O" with its measured CC50 at 48 h.
Ans: 37.7

Q: Please report CC50 at 48 h for the following molecule: "C#CCN(c1nc(-c2ccc(F)cc2)no1)C1CCCCC1"
Ans: 41.1

Q: For "CC(=O)OC[C@H]1O[C@H](OC[C@@H](Cn2cc(CN(c3nc(-c4cccc(C)c4)no3)C3CCCCC3)nn2)OC(C)=O)C=C[C@@H]1OC(C)=O" , write its CC50 at 48 h.
Ans: 39.2
